Numbers sourced from ChEMBL document CHEMBL3137440.

- ASSAY COMMENT: in vitro
- ASSAY SETUP: human, microsomes
REPORTED ENDPOINT: half-life (min)

Please review the entries below; each comes with its answer.
* N#Cc1ccc(N(c2cccnc2)C2CCN(c3ccc(F)c(F)c3)CC2)cc1 | 23.5
* Fc1cnc(N2CCC(N(c3ccc(C(F)(F)F)cc3)c3cccnc3)CC2)nc1 | 49
* FC(F)(F)c1ccc(N(c2cccnc2)C2CCN(c3ccccc3)CC2)cc1 | 29.7

A: FC(F)(F)c1ccc(N(c2cncnc2)C2CCN(c3ccc(C(F)(F)F)cn3)CC2)cc1
B: CC(C)(C)C(=O)N1CCC(N(c2ccc(C(F)(F)F)cc2)c2cccnc2)CC1
C: FC(F)(F)c1ccc(N2CCC(N(c3ccc(C(F)(F)F)cc3)c3cncnc3)CC2)cc1
D: CN(C)S(=O)(=O)c1cccc(N2CCC(N(c3ccc(C(F)(F)F)cc3)c3cccnc3)CC2)c1
Write the entries in order, lowest recorded half-life first. Kindly provide the labels arranged according to the requested ordering.
D, B, C, A
(D: 6.7 min, B: 13.8 min, C: 25.7 min, A: 56 min)

a: N#Cc1cc(C(F)(F)F)ccc1N1CCC(N(c2ccc(Cl)cc2)c2cccnc2)CC1
b: FC(F)(F)c1ccc(N(c2cccnc2)C2CCN(c3nccs3)CC2)cc1
I'm curious whether a or b has the smaller half-life number. Which is it? Give the label under which the chosen entry appears.
b
(b: 10.8 min, a: 16.8 min)

* * *

- ASSAY COMMENT: in vitro
- ASSAY SETUP: human, microsomes
REPORTED ENDPOINT: hepatic extraction ratio

• FC(F)(F)c1ccc(N(c2cncnc2)C2CCN(c3ccc(C(F)(F)F)cn3)CC2)cc1 = 0.63
• N#Cc1cc(C(F)(F)F)ccc1N1CCC(N(c2ccc(Cl)cc2)c2cccnc2)CC1 = 0.85
• CC(C)(C)CC(=O)N1CCC(N(c2ccc(Cl)cc2)c2cccnc2)CC1 = 0.91
• CN(C)S(=O)(=O)c1cccc(N2CCC(N(c3ccc(C(F)(F)F)cc3)c3cccnc3)CC2)c1 = 0.94
• O=C(c1ccccc1)N1CCC(N(c2ccc(Cl)cc2)c2cccnc2)CC1 = 0.89
• O=C(c1ccccc1C(F)(F)F)N1CCC(N(c2ccc(C(F)(F)F)cc2)c2cccnc2)CC1 = 0.93
• O=C(C1CC1)N1CCC(N(c2ccc(Cl)cc2)c2cccnc2)CC1 = 0.8
• CC(C)(C)C(=O)N1CCC(N(c2ccc(C(F)(F)F)cc2)c2cccnc2)CC1 = 0.88
• N#Cc1cc(C(F)(F)F)ccc1N1CCC(N(c2ccc(C(F)(F)F)cc2)c2cccnc2)CC1 = 0.75

* * *

- ASSAY COMMENT: DNDI: Protein binding in human liver microsomes
- Assay type: ADME, Microsome
- ASSAY SETUP: read-out: % bound (converted)
REPORTED ENDPOINT: fraction unbound
Answer using only a numeral; do not append any unit.

Entry FC(F)(F)c1ccc(N(c2cccnc2)C2CCN(c3ccc(C(F)(F)F)cn3)CC2)cc1 needs its fraction unbound filled in; supply it.
0.002

* * *

- ASSAY COMMENT: DNDI: Metabolism
- Format: ADME, Microsome
- ASSAY SETUP: rat, microsomes; read-out: EH
REPORTED ENDPOINT: hepatic extraction ratio

* O=C(c1ccccc1C(F)(F)F)N1CCC(N(c2ccc(C(F)(F)F)cc2)c2cccnc2)CC1 | 0.7
* O=C(c1ccccc1)N1CCC(N(c2ccc(Cl)cc2)c2cccnc2)CC1 | 0.88
* Cc1noc(C)c1C(=O)N1CCC(N(c2ccc(C(F)(F)F)cc2)c2cccnc2)CC1 | 0.72
* CS(=O)(=O)N1CCC(N(c2ccc(Cl)cc2)c2cccnc2)CC1 | 0.67
* O=C(c1ccc(F)cc1)N1CCC(N(c2ccc(C(F)(F)F)cc2)c2cccnc2)CC1 | 0.77

* * *

- ASSAY COMMENT: DNDI: Cytotoxicity against L-6 rat myoblasts from skeletal musclE
- ASSAY SETUP: L6 rat skeletal muscle myoblasts, IC50
REPORTED ENDPOINT: IC50 (µM)
The answer is to be given in µM; state only the numeric part.

Please review the entries below; each comes with its answer.
* CN(C)S(=O)(=O)c1cccc(N2CCC(N(c3ccc(C(F)(F)F)cc3)c3cccnc3)CC2)c1 | 10.4
* O=C(C1CC1)N1CCC(N(c2ccc(Cl)cc2)c2cccnc2)CC1 | 78.2
* Cn1nc(C2CC2)cc1N1CCC(N(c2ccc(C(F)(F)F)cc2)c2cccnc2)CC1 | 30

Entry O=C(c1ccccc1)N1CCC(N(c2ccc(Cl)cc2)c2cccnc2)CC1 needs its IC50 filled in; supply it.
52.5

Entry FC(F)(F)c1ccc(N2CCC(N(c3ccc(C(F)(F)F)cc3)c3cncnc3)CC2)cc1 needs its IC50 filled in; supply it.
76.5

Entry FC(F)(F)c1ccc(N(c2cncnc2)C2CCN(c3ccc(C(F)(F)F)cn3)CC2)cc1 needs its IC50 filled in; supply it.
93.2

Entry Cc1ncsc1C(=O)N1CCC(N(c2ccc(C(F)(F)F)cc2)c2cccnc2)CC1 needs its IC50 filled in; supply it.
67.4

Entry FC(F)(F)c1ccc(N(c2cccnc2)C2CCN(c3nccs3)CC2)cc1 needs its IC50 filled in; supply it.
41.5

Entry CCC(C(C)O)N1CCC(N(c2ccc(C(F)(F)F)cc2)c2cccnc2)CC1 (centres undefined) needs its IC50 filled in; supply it.
49.6

Entry FC(F)(F)c1ccc(N(c2cccnc2)C2CCN(c3ccccc3)CC2)cc1 needs its IC50 filled in; supply it.
57.4

Entry CC(C)(F)CN1CCC(N(c2ccc(C(F)(F)F)cc2)c2cccnc2)CC1 needs its IC50 filled in; supply it.
64.9

Entry CS(=O)(=O)N1CCC(N(c2ccc(Cl)cc2)c2cccnc2)CC1 needs its IC50 filled in; supply it.
62.5

Entry Fc1cnc(N2CCC(N(c3ccc(C(F)(F)F)cc3)c3cccnc3)CC2)nc1 needs its IC50 filled in; supply it.
53.1

Entry CC(O)C(C)N1CCC(N(c2ccc(C(F)(F)F)cc2)c2cccnc2)CC1 (centres undefined) needs its IC50 filled in; supply it.
64.8

* * *

- ASSAY COMMENT: in vitro
- ASSAY SETUP: human, microsomes
REPORTED ENDPOINT: half-life (min)

* FC(F)(F)c1ccc(N(c2cccnc2)C2CCN(c3ccc(C(F)(F)F)cn3)CC2)cc1 | 45

A: CS(=O)(=O)c1ccc(N2CCC(N(c3ccc(Cl)cc3)c3cccnc3)CC2)cc1
B: CS(=O)(=O)N1CCC(N(c2ccc(Cl)cc2)c2cccnc2)CC1
I'm curious whether A or B has the smaller half-life number. Which is it? Give the label under which the chosen entry appears.
A

* * *

- Test system: Trypanosoma cruzi
- ASSAY COMMENT: DNDI: Chagas in Vitro
- Type: functional, Tulahuen C4 (LacZ)
- ASSAY SETUP: Trypanosoma cruzi, Tulahuen C4 (LacZ)
REPORTED ENDPOINT: IC90 (nM)

Please review the entries below; each comes with its answer.
- Fc1cnc(N2CCC(N(c3ccc(C(F)(F)F)cc3)c3cccnc3)CC2)nc1: 28
- CS(=O)(=O)c1ccc(N2CCC(N(c3ccc(Cl)cc3)c3cccnc3)CC2)cc1: 5.7

A: N#Cc1ccc(N2CCC(N(c3ccc(C(F)(F)F)cc3)c3cccnc3)CC2)cc1
B: CS(=O)(=O)N1CCC(N(c2ccc(Cl)cc2)c2cccnc2)CC1
Which of the two gives a bigger number for IC90: A or B ? Give the label under which the chosen entry appears.
B
(B: 280 nM, A: 13 nM)

* * *

- ASSAY COMMENT: DNDI: Stability, 4 hour
- Assay type: ADME, cell-free
- ASSAY SETUP: human, plasma
REPORTED ENDPOINT: remaining at 4 h (%)
The answer is to be given in %; state only the numeric part.

Entry FC(F)(F)c1ccc(N(c2cccnc2)C2CCN(c3ccc(C(F)(F)F)cn3)CC2)cc1 needs its remaining at 4 h filled in; supply it.
97

* * *

- ASSAY COMMENT: DNDI: Metabolism
- Format: ADME, Canis lupus familiaris, Microsome
- ASSAY SETUP: dog, microsomes
REPORTED ENDPOINT: half-life (h)
The answer is to be given in h; state only the numeric part.

Entry FC(F)(F)c1ccc(N(c2cccnc2)C2CCN(c3ccc(C(F)(F)F)cn3)CC2)cc1 needs its half-life filled in; supply it.
1.22

* * *

- TESTED ON: Cytochrome P450 3A4 (Homo sapiens, UniProt P08684)
- Sequence (P08684 whole entry): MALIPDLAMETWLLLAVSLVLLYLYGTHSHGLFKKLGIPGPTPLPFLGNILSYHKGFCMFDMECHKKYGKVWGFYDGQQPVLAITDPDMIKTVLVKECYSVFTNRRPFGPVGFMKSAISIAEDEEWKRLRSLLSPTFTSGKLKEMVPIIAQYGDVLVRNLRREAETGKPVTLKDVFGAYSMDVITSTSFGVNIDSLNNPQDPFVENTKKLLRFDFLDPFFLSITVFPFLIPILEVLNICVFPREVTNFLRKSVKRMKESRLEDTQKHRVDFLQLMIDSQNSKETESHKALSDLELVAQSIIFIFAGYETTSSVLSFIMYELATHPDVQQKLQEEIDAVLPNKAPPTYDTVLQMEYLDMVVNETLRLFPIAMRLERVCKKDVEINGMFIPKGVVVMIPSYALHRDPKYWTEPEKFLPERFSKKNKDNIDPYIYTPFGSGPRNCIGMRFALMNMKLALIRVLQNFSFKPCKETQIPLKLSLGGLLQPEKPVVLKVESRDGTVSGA
- ASSAY COMMENT: DNDI: CYP Inhibition
- Assay type: ADME
REPORTED ENDPOINT: IC50 (nM)

• CC(C)(C)CC(=O)N1CCC(N(c2ccc(Cl)cc2)c2cccnc2)CC1 = 800
• O=C(c1ccccc1)N1CCC(N(c2ccc(Cl)cc2)c2cccnc2)CC1 = 1900

a: CS(=O)(=O)N1CCC(N(c2ccc(Cl)cc2)c2cccnc2)CC1
b: O=C(C1CC1)N1CCC(N(c2ccc(Cl)cc2)c2cccnc2)CC1
I'm curious whether a or b has the smaller IC50 number. Which is it? Give the label under which the chosen entry appears.
b
(b: 1500 nM, a: 2600 nM)
